Ref: patent US20210246166A1

# assay-target: recombinant rat MASP2 active protease (amino acids 296-685, C-terminal His Tag) (rat, UniProt Q9JJS8 296-685)
# Sequence (Q9JJS8 other isoform, or with tags, fused parts or gaps limits assumed): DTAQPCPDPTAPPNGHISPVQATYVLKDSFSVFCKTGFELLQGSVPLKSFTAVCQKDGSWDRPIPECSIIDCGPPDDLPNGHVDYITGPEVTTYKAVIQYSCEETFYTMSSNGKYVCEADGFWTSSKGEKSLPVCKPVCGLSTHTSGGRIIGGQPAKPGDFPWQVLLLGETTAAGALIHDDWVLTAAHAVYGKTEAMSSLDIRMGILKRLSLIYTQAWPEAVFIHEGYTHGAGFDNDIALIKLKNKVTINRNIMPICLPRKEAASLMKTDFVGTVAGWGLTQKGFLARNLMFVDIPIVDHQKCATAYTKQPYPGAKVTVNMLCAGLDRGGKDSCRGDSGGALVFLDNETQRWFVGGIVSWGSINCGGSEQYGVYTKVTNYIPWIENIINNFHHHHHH
# assay-summary: cell-based or functional assay
Bridge positions count the residues as written; N and C are the ends. Square brackets hold non-standard residues; d marks the D form. Ends that are not written are not given here. Pro(4-spirocPr) = O=C(O)[C@@H]1CC2(CC2)CN1; tBuAla = CC(C)(C)C[C@H](N)C(=O)O; Pen = CC(C)(S)[C@H](N)C(=O)O; NMeC = CN[C@@H](CS)C(=O)O; PEG2 = NCCOCCOCCC(=O)O; Sar = CNCC(=O)O
Assign rat MASP2 IC50 to each entry below.
Numbers only, in nM.

Example results:
{"binder": "[Sar]ICSRS[tBuAla]PPI[Pen]IP-{PEG5‑CH2CO2H(18 atoms)-OH} (disulfide 3-11) [Example 496: ((N-Me)G)-IC+SRS-((tBu)A)-PPI-(Pen)+IP-(PEG5-CH2CO2H(18 atoms))-OH]", "rat MASP2 IC50 [nM]": 31}
{"binder": "AICSRS[tBuAla]P[Pro(4-spirocPr)]I[NMeC]IPD-NH2 (disulfide 3-11; N-terminus assumed; SMILES CC[C@H](C)[C@H](NC(=O)[C@H](C)N)C(=O)N[C@H]1CSSC[C@@H](C(=O)N[C@H](C(=O)N2CCC[C@H]2C(=O)N[C@@H](CC(=O)O)C(N)=O)[C@@H](C)CC)N(C)C(=O)[C@H]([C@@H](C)CC)NC(=O)[C@@H]2CC3(CC3)CN2C(=O)[C@@H]2CCCN2C(=O)[C@H](CC(C)(C)C)NC(=O)[C@H](CO)NC(=O)[C@H](CCCNC(=N)N)NC(=O)[C@H](CO)NC1=O) [Example 41: AIC+SRS-((tBu)A)-P-((6S)-5-Azaspiro[2.4]heptane-6-carboxylic acid)-I-((N-Me)C)+IPD-NH2]", "rat MASP2 IC50 [nM]": 13}

GET /values?readout=rat MASP2 IC50&item= [Sar]ICSRS[tBuAla]PPI[Pen]IP-{PEG2-NH2} (disulfide 3-11; also: HCl salt) [Example 39: ((N-Me)G)-IC+SRS-((tBu)A)-PPI-(Pen)+IP-(PEG1(10 atoms))-NH2 (HCl salt)] 37
